// data source = patent US20240343803A1

// reported pEC50 for each item listed
studyTarget: T1, Full-length human TIGIT on CHO-K1 cells (CHO-K1 human TIGIT) (human, UniProt Q495A1 22-244)
T1 construct: NCBI XP_024309156.1; the entry includes the signal peptide (limits not recoverable); The strain (high, medium, low) is named under assay; also called high expression strain 1D2; medium expression strain 2D10
T1 sequence: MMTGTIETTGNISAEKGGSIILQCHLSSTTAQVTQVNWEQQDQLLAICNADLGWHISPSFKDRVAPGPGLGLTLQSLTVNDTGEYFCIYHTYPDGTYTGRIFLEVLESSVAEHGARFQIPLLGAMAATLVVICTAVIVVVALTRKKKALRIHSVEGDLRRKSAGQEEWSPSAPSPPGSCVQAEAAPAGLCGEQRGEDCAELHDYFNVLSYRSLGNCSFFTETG
testSummary: cell binding, CHO-K1 human TIGIT high expression strain
pEC50: −log10 of the molar value.
measure: pEC50

[
  {
    "binder": "TIGIT-002-H3L1 (antibody, V domains shown, Humanized anti-TIGIT antibody) VH: EVQLQESGPGLVKPSETLSLTCAVSGYSITSDSWNWIRQPPGKKLEWMGYISYSGNTYYNPSLKSRITISRDTSKNQFSLKLSSVTAADTAVYYCARLDFSNYGGAVDYWGQGTTVTVSS VL: DIVMTQTPLSLSVTPGQPASISCKASQNVRTAVAWYLQKPGQSPQLMIYSASYRYTGVPDRFSGSGSGTDFTLKISRVEAEDVGVYYCQQYYTTPWTFGGGTKVEIK",
    "recordedResult": 10.69
  },
  {
    "binder": "TIGIT-CHI-002 (antibody, V domains shown, Human-mouse chimeric antibody) VH: EVQLQESGPGLAKPSQTLSLACSVTGYSITSDSWNWIRKFPGNKLEYMGYISYSGNTYYNPSLKSRISITRDTSKNQFYLQLNSVTTEDTATYYCARLDFSNYGGAVDYWGQGTSVTVSS VL: DIVMTQSHTFMSTSVGDRVSITCKASQNVRTAVAWYQQKPGQSPKLMIYSASYRYTGVPDRFTGSGSGTDFTFTISSVQAEDLAVYYCQQYYTTPWTFGGGAKLEIQ",
    "recordedResult": 10.66
  },
  {
    "binder": "TIGIT-002-H1L1 (antibody, V domains shown, Humanized anti-TIGIT antibody) VH: EVQLQESGPGLVKPSETLSLTCAVSGYSITSDSWNWIRQPPGKGLEWIGYISYSGNTYYNPSLKSRVTISRDTSKNQFSLKLSSVTAADTAVYYCARLDFSNYGGAVDYWGQGTTVTVSS VL: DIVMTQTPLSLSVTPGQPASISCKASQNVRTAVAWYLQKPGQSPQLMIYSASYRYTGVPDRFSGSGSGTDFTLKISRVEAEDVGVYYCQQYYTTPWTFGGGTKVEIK",
    "recordedResult": 10.70
  }
]
